- System: Bacillus subtilis DB104 (SP-AmyQ fusion secretion)
- assay_text: AmyQ secretion efficiency, weighted average sort bin (1 = best secretion, 10 = worst) (bin number (weighted average, 1-10)); higher = lower secretion efficiency
# label = condition met if AmyQ secretion efficiency >= 7 else condition not met

{"residue_sequence": "MFKFKKNFRRRRRRALMSISLFSATASAAST", "target_under_test": "Bacillus subtilis DB104 (SP-AmyQ fusion secretion)", "category_label": "condition not met"}
{"residue_sequence": "MRGKSAVLLSLIMLIAGFLIEFSFQM", "target_under_test": "Bacillus subtilis DB104 (SP-AmyQ fusion secretion)", "category_label": "condition met"}
{"residue_sequence": "MKKVLMAFIICLSLILSVLAAPPSGAKAARR", "target_under_test": "Bacillus subtilis DB104 (SP-AmyQ fusion secretion)", "category_label": "condition not met"}
{"residue_sequence": "MFNRLFRMSSFIVCFLAALIMAFTLPNSVYAQKP", "target_under_test": "Bacillus subtilis DB104 (SP-AmyQ fusion secretion)", "category_label": "condition not met"}
{"residue_sequence": "MFKKHTISLLIIFLLASAVLAKPIEEHTV", "target_under_test": "Bacillus subtilis DB104 (SP-AmyQ fusion secretion)", "category_label": "condition not met"}
{"residue_sequence": "MMKKGLLAGALTATVLFGTCAVDVPKAEAASQ", "target_under_test": "Bacillus subtilis DB104 (SP-AmyQ fusion secretion)", "category_label": "condition not met"}
{"residue_sequence": "MKKRKRRNFKRFIAAFLVLALMIDVLAKST", "target_under_test": "Bacillus subtilis DB104 (SP-AmyQ fusion secretion)", "category_label": "condition met"}
{"residue_sequence": "MNKPTKLFSTLALAAGMTAAAAGGAGTIHAQRR", "target_under_test": "Bacillus subtilis DB104 (SP-AmyQ fusion secretion)", "category_label": "condition not met"}
